Tested on: NRF2 (nuclear factor erythroid 2-related factor 2)
Assay: NRF2 +/-GSH activation assay (DiscoverX PathHunter NRF2 translocation kit, U2OS cells)
Assay type: cell-based
Conditions: +GSH; normalised to DMF high control
quantity measured: NRF2 activation +GSH Emax (%)

{"compound": "C=C(Cc1nc(-c2ccc(Cl)cc2)no1)C(=O)O", "unit abbrev": "%", "quantitative result": 89}
{"compound": "C=C(Cc1nc(C(C)CCCCCC(F)(F)F)no1)C(=O)O (centres unmarked)", "unit abbrev": "%", "quantitative result": 50}
{"compound": "C=C(Cc1noc(C(F)(F)c2ccc(Br)cc2)n1)C(=O)O", "unit abbrev": "%", "quantitative result": 208}
{"compound": "C=C(Cc1nc(Cc2ccc(Cl)cc2)no1)C(=O)O", "unit abbrev": "%", "quantitative result": 23}
{"compound": "C=C(Cc1nc(CCCCCCCC)no1)C(=O)O", "unit abbrev": "%", "quantitative result": 187}
